protein stability index reference
B1: DFFB (parent)
chain: KLNCDPSRIYKPQTRLKRKQPVRK

Variants of: B1
TEST_DETAILS: protein stability index of a GFP-peptide fusion (GPS, HEK-293T) (PSI 1-6); higher = more stable;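 further: lentivirally expressed fusions sorted by FACS into six bins by GFP to DsRed ratio, PSI derived from sequencing read proportions per bin multiplied by bin number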
PARTICULARS: c terminus: a fixed tail appended

MUTATION_STRING | protein stability index
Q13Y | 3.46
R23P | 3.84

Quick one: protein stability index for D5M ?
2.71

Next variant: R15L
2.69

Next variant: K1A
4.14

Next variant: K17P
3

Next variant: N3Y
3.29

Next variant: K1L
3.8

Next variant: R15I
3.52

Next variant: P12E
4.24

Data credit: the supplement of paper PMC10567573
